system: hERG1 (Kv11.1); experiment: TEVC inhibition, Kv11.1 (hERG1); assay type: cell-based; conditions: human, Xenopus laevis oocytes expressing hERG1 (Kv11.1), pH 7.4, replicate 1
Positions of bridges follow the written chain, without caps; N, C: chain ends. No end group written: not given here.
endpoint: inhibition at 1 µM (%)
Form entry: value (%) — number only.

Recorded inhibition at 1 µM of RLFCIRHHKYCGHRPKRCCSGLFCRCNTFGTNCRCQSKGALGKLI (disulfide 4-19, 11-24, 18-35, 26-33) [xib1] , please.
0

More entries:
Using the record for KRSCIRRFGRCDHRPNDCCYNSSCRCNLWGSNCRCQRMGLFQKWGK (disulfide 4-19, 11-24, 18-35, 26-33) [xib13] , report its inhibition at 1 µM.
0
